B1: KLHL14 (parent)
chain: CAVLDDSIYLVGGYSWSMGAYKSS

Variants of: B1
Assay: protein stability index of a GFP-peptide fusion (GPS, HEK-293T) (PSI 1-6); higher = more stable;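 also: lentivirally expressed fusions sorted by FACS into six bins by GFP to DsRed ratio, PSI derived from sequencing read proportions per bin multiplied by bin number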
Conditions: c terminus: a fixed tail appended
Class assignment keyed on protein stability index, ranges low group (below 2), middle group (2 to below 3), high group (3 or more)

# mutation, label-class
rows = [
    ("K22G", "middle group"),
    ("Y21E", "low group"),
]

Lab note: which band did V11P land in?
low group

Sort into band: S23M
middle group

Would you mind sorting Y21F into the appropriate category?
high group

# classify by protein stability index band: A2L
middle group

Band of G19W ?
high group

Entry M18R belongs to which category?
middle group

// return the class label for S23Q
middle group

Which class is correct for the following variant? D5Y
low group

Exercise: read the entry S7V and state which class it falls under.
middle group

State the class of the variant shown: V11Q
low group

Numbers sourced from the supplement of paper PMC10567573.
